All values here come from patent US12037344B2.

Tested on: THP-1 cells
Assay: Measurement of IL-1β production, hTRF protocol (second alternative procedure), THP-1 cells
Format: cell-based, human
Settings: Homo sapiens, THP-1, IL-1β production, human; read-out: NLRP3 hILIB EC50
pEC50: −log10 of the molar value.
If the reported pEC50 equals or exceeds 6, assign class 1. If not, assign class 0.

- ENTRY SMILES: "CN(C)CCn1nc2c(N)nc3cc(-c4ccn[nH]4)ccc3c2n1"
  CLASSIFICATION: "class 0"
- ENTRY SMILES: "COc1ccc(C(=O)NCCn2cc3c(n2)c(N)nc2cc(-c4cc[nH]n4)ccc23)nn1"
  CLASSIFICATION: "class 0"
- ENTRY SMILES: "Nc1nc2cc(-c3cc[nH]n3)ccc2c2nn(CCCO)cc12"
  CLASSIFICATION: "class 1"
- ENTRY SMILES: "Nc1nc2cc(-c3cc[nH]n3)ccc2c2nn(CCNC(=O)c3csc(Cl)n3)cc12"
  CLASSIFICATION: "class 1"

* * *

System: THP-1 cells
Test: Measurement of IL-1β production, hTRF protocol (second alternative procedure), THP-1 cells
Type: cell-based, human
Conditions: Homo sapiens, THP-1, IL-1β production, human; read-out: NLRP3 hILIB EC50
Experimental: Measurement of IL-1β Production—hTRF Protocol (Second Alternative Procedure) Serial dilutions of compounds in DMSO were added to low volume 384 well plates at 100 nl/well using an ECHO 550 acoustic dispenser (Labcyte) to achieve final starting concentration of 10 μM in assay. […] After the 2 hour incubation, the cell plates were spun in the centrifuge for 5 minutes at 1200 rpm. […] The plates were then read on the Perkin Elmer EnVision at 665/615 nm using the hTRF laser.
ATTRIBUTE MEASURED: EC50 (nM)

- MOLECULE: "Nc1nc2cc(-c3cc[nH]n3)ccc2c2cn(CCNC(=O)c3cnccn3)nc12"
  READING: 360
- MOLECULE: "Nc1nc2cc(-c3cc[nH]n3)ccc2c2cn(Cc3nc(-c4ccccc4)no3)nc12"
  READING: 390
- MOLECULE: "Nc1nc2cc(-n3cccn3)ccc2c2c1cnn2CCCO"
  READING: 1130
- MOLECULE: "Nc1nc2cc(-c3cc[nH]n3)ccc2c2cn(CCNC(=O)c3ccncn3)nc12"
  READING: 640
- MOLECULE: "CCC(CO)Cn1cc2c(N)nc3cc(-c4cc[nH]n4)ccc3c2n1 (stereo not drawn)"
  READING: 830
- MOLECULE: "C[C@H](CO)Cn1ncc2c(N)nc3cc(-c4cc[nH]n4)ccc3c21"
  READING: 1870
- MOLECULE: "Nc1nc2cc(-c3ccn[nH]3)ccc2c2nn(CCN3CCOCC3)cc12"
  READING: 5760
- MOLECULE: "CN1CCOC(Cn2ncc3c(N)nc4cc(-c5cc[nH]n5)ccc4c32)C1 (stereo not drawn)"
  READING: 1210
- MOLECULE: "Nc1nc2cc(-c3cc[nH]n3)ccc2c2cn(CC(=O)Nc3ccccc3F)nc12"
  READING: 250
- MOLECULE: "CS(=O)(=O)CCn1cc2c(n1)c(N)nc1cc(-c3cc[nH]n3)ccc12"
  READING: 1980
- MOLECULE: "CC(=O)NCCn1cc2c(N)nc3cc(-c4cc[nH]n4)ccc3c2n1"
  READING: 870
- MOLECULE: "Nc1nc2cc(-c3cc[nH]n3)ccc2c2nn(CCNC(=O)c3cccnc3)cc12"
  READING: 2600
- MOLECULE: "Nc1nc2cc(-n3cccn3)ccc2c2nn(CCCO)cc12"
  READING: 620
- MOLECULE: "Nc1nc2cc(-c3cc[nH]n3)ccc2c2nn(CCNC(=O)c3cnccn3)cc12"
  READING: 480
- MOLECULE: "COC(C)Cn1cc2c(N)nc3cc(-c4cc[nH]n4)ccc3c2n1 (stereo not drawn)"
  READING: 80
- MOLECULE: "CC(C)C(O)Cn1cc2c(N)nc3cc(-c4cc[nH]n4)ccc3c2n1 (stereo not drawn)"
  READING: 650
- MOLECULE: "CO[C@@H](CO)Cn1cc2c(N)nc3cc(-n4cccn4)ccc3c2n1"
  READING: 310
- MOLECULE: "Nc1nc2cc(-c3cc[nH]n3)ccc2c2nn(C3COCC3O)cc12 (single isomer, unassigned) [Example 324]"
  READING: 1570
- MOLECULE: "COCCCn1ncc2c(N)nc3cc(-c4cc[nH]n4)ccc3c21"
  READING: 300
- MOLECULE: "Nc1nc2cc(-c3cc[nH]n3)ccc2c2cn(CCNC(=O)c3cocn3)nc12"
  READING: 630
- MOLECULE: "CCN(Cc1nc2c(N)nc3cc(-c4ccn[nH]4)ccc3c2s1)C(C)=O"
  READING: 1650
- MOLECULE: "Nc1nc2cc(-c3cc[nH]n3)ccc2c2c1cnn2CCc1ccccn1"
  READING: 1810
- MOLECULE: "Nc1nc2cc(-c3cc[nH]n3)ccc2c2nn(CCOCCO)cc12"
  READING: 750
- MOLECULE: "Nc1nc2cc(-c3ccn[nH]3)ccc2c2nn(CCNC(=O)c3ccccn3)nc12"
  READING: 680
- MOLECULE: "Nc1nc2cc(-c3ccn[nH]3)ccc2c2nn(CCN3CCC3)cc12"
  READING: 1070
- MOLECULE: "Nc1nc2cc(-c3ccn[nH]3)ccc2c2sc(CCNC(=O)C3CCO3)nc12 (stereo not drawn)"
  READING: 1670
- MOLECULE: "Nc1nc2cc(-c3cc[nH]n3)ccc2c2c1cnn2CCOCCO"
  READING: 1440
- MOLECULE: "Nc1nc2cc(-c3cc[nH]n3)ccc2c2nn(CC3(CO)CC3)cc12"
  READING: 610
- MOLECULE: "Nc1nc2cc(-c3cc[nH]n3)ccc2c2nn(CCCOC(F)(F)F)cc12"
  READING: 350
- MOLECULE: "NCCc1cc2c(N)nc3cc(-c4ccn[nH]4)ccc3c2[nH]1"
  READING: 3790
